Source: the NIST ThermoML archive (doi:10.1021/je400659p)

# TEST_CONTEXT: 343.15 K; 101 kPa; Liquid; Vibrating tube method
ENDPOINT_NAME: mass density (kg/m3)

[
  {
    "MOLECULE": "CCCCn1cc[n+](C)c1.F[B-](F)(F)F [1-butyl-3-methylimidazolium tetrafluoroborate]",
    "mass density / kg/m3": 1169.32
  },
  {
    "MOLECULE": "OCCO [1,2-ethanediol]",
    "mass density / kg/m3": 1077.65
  },
  {
    "MOLECULE": "CCn1cc[n+](C)c1.F[B-](F)(F)F [1-ethyl-3-methylimidazolium tetrafluoroborate]",
    "mass density / kg/m3": 1253.18
  },
  {
    "MOLECULE": "C1COCCO1 [1,4-dioxane]",
    "mass density / kg/m3": 976.37
  }
]

* * *

# TEST_CONTEXT: 293.15 K; 101 kPa; Liquid; Vibrating tube method
ENDPOINT_NAME: mass density (kg/m3)

[
  {
    "COMPOUND": "CCn1cc[n+](C)c1.F[B-](F)(F)F [1-ethyl-3-methylimidazolium tetrafluoroborate]",
    "mass density [kg/m3]": 1290.63
  },
  {
    "COMPOUND": "CCCCn1cc[n+](C)c1.F[B-](F)(F)F [1-butyl-3-methylimidazolium tetrafluoroborate]",
    "mass density [kg/m3]": 1204.44
  },
  {
    "COMPOUND": "OCCO",
    "mass density [kg/m3]": 1113.45
  },
  {
    "COMPOUND": "C1COCCO1",
    "mass density [kg/m3]": 1033.57
  }
]

* * *

# TEST_CONTEXT: 303.15 K; 101 kPa; Liquid; Vibrating tube method
ENDPOINT_NAME: mass density (kg/m3)

[
  {
    "MOLECULE": "OCCO [1,2-ethanediol]",
    "UNITS_SYMBOL": "kg/m3",
    "OBS_VALUE": 1106.45
  },
  {
    "MOLECULE": "CCn1cc[n+](C)c1.F[B-](F)(F)F [1-ethyl-3-methylimidazolium tetrafluoroborate]",
    "UNITS_SYMBOL": "kg/m3",
    "OBS_VALUE": 1283.02
  },
  {
    "MOLECULE": "CCCCn1cc[n+](C)c1.F[B-](F)(F)F [1-butyl-3-methylimidazolium tetrafluoroborate]",
    "UNITS_SYMBOL": "kg/m3",
    "OBS_VALUE": 1197.34
  },
  {
    "MOLECULE": "C1COCCO1 [1,4-dioxane]",
    "UNITS_SYMBOL": "kg/m3",
    "OBS_VALUE": 1022.27
  }
]
